- tgt: T1, 4H2444-bA
- T1 chain: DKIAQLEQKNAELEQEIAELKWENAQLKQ
- experimentDescription: two-hybrid library CCNG1;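 note: natural log of median RNA to DNA barcode read ratio; higher means stronger binding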
In this section, each of the binders is paired with its reported interaction score.
Enter the number alone.

Answered cases to consult:
binder="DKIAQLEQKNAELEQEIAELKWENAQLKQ [4H2444-bA]" reportedmetric="interaction score" valueobserved=1.3
binder="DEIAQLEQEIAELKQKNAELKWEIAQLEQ [4H121-bA]" reportedmetric="interaction score" valueobserved=-3.87

Q. Name the reported interaction score value associated with the binder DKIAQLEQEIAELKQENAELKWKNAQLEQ [4H2143-bA]
A. -0.654
